B1: tRNA (parent)
chain: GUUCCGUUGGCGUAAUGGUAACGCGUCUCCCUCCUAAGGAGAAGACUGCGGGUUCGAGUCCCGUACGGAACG

variants of: B1; assay: yeast fitness relative to wild type (ratio to wild type); higher = fitter; tRNA-Arg(CCU), competitive growth, 37 C, YPD
Variants at the floor of the assay were thinned out.
Assign yeast fitness to each entry below.

query: Fill in: yeast fitness of C11U U19A A42G U59A C60U is ___
result: ≤ 0.5

query: Fill in: yeast fitness of U3G C27G G50C is ___
result: ≤ 0.5

query: Fill in: yeast fitness of C11U C30A U32G C49U C55G is ___
result: ≤ 0.5

query: Fill in: yeast fitness of A14G U35G A37U is ___
result: ≤ 0.5

query: Fill in: yeast fitness of G25C A42C C61U is ___
result: ≤ 0.5

query: Fill in: yeast fitness of U3A G9A C30A A42U C49U U59C A69C is ___
result: ≤ 0.5

query: Fill in: yeast fitness of C30U C31G C33U A37C A65C is ___
result: ≤ 0.5

query: Fill in: yeast fitness of G18A G51C A65G is ___
result: ≤ 0.5

query: Fill in: yeast fitness of G6A G18C A21C C33A G56A is ___
result: ≤ 0.5

query: Fill in: yeast fitness of C4U C30U U54A is ___
result: ≤ 0.5

query: Fill in: yeast fitness of A15G G23C G38C G52C C66A is ___
result: ≤ 0.5

query: Fill in: yeast fitness of G10C A45G C61A A70G is ___
result: ≤ 0.5

query: Fill in: yeast fitness of C11U C24A A43G C62A is ___
result: ≤ 0.5

query: Fill in: yeast fitness of C4U A14G A15G C22U C46U A70U is ___
result: ≤ 0.5
